- Tested on: rodent lifetime carcinogenesis bioassay, tumor incidence TD50
- method description: carcinogenic potency in animals, long-term in vivo studies, CPDB compilation (AID 1745844)
- particulars: monkey; strain Cynomolgus [Macaca fascicularis]; both sexes; in feed; site: any site (literature study); lesion: benign tumor; dosed 258 weeks; study length 1208 weeks
recorded endpoint: TD50
Number plus unit, in that order.

Query string: Under rodent lifetime carcinogenesis bioassay, tumor incidence TD50: TD50 value of "CCOC(N)=O" ?
Result string: 128 mg/kg/day

* * *

- Test system: rodent lifetime carcinogenesis bioassay, tumor incidence TD50
- method description: carcinogenic potency in animals, long-term in vivo studies, CPDB compilation (AID 1745844)
- particulars: rat; strain Fischer 344; females; in drinking water; site: esophagus; lesion: carcinoma; dosed 30 weeks; study length 75 weeks
recorded endpoint: TD50
Number plus unit, in that order.

Query string: Looking for the measured TD50 of CC(O)CN(C)N=O (stereo unspecified) , can you help?
Result string: 0.408 mg/kg/day

* * *

- Test system: rodent lifetime carcinogenesis bioassay, tumor incidence TD50
- method description: carcinogenic potency in animals, long-term in vivo studies, CPDB compilation (AID 1745844)
- particulars: mouse; strain B6C3F1; females; in feed; site: liver; lesion: hepatocellular adenoma + hepatoblastoma + hepatocellular carcinoma; dosed 104 weeks; study length 104 weeks
recorded endpoint: TD50 (mg/kg/day)
The answer is to be given in mg/kg/day; state only the numeric part.

Query string: Looking for the measured TD50 of "Cc1ncc[nH]1" , can you help?
Result string: 1620

Query string: Looking for the measured TD50 of "Nc1c(Br)cc(Br)c2c1C(=O)c1ccccc1C2=O" , can you help?
Result string: 490

* * *

- Test system: rodent lifetime carcinogenesis bioassay, tumor incidence TD50
- method description: carcinogenic potency in animals, long-term in vivo studies, CPDB compilation (AID 1745844)
- particulars: rat; strain Sprague-Dawley; males; in feed; site: kidney; lesion: urothelial carcinoma; dosed 112 weeks; study length 112 weeks
recorded endpoint: TD50 (mg/kg/day)
The answer is to be given in mg/kg/day; state only the numeric part.

Query string: Looking for the measured TD50 of "S=C(SN1CCOCC1)N1CCOCC1" , can you help?
Result string: 690

* * *

- Tested on: rodent lifetime carcinogenesis bioassay, tumor incidence TD50
- method description: carcinogenic potency in animals, long-term in vivo studies, CPDB compilation (AID 1745844)
- particulars: rat; strain Fischer 344; females; by gavage; site: forestomach; lesion: squamous-cell papilloma; dosed 100 weeks; study length 104 weeks
recorded endpoint: TD50

Query string: Looking for the measured TD50 of "CC(C)=CCl" , can you help?
Result string: 209 mg/kg/day

* * *

- Test system: rodent lifetime carcinogenesis bioassay, tumor incidence TD50
- method description: carcinogenic potency in animals, long-term in vivo studies, CPDB compilation (AID 1745844)
- particulars: rat; strain F344/DuCrj; males; in feed; site: colon; lesion: adenoma; dosed 67 weeks; study length 67 weeks
recorded endpoint: TD50

Query string: Looking for the measured TD50 of "Cc1cccn2c1nc1ccc(N)nc12" , can you help?
Result string: 15.4 mg/kg/day

* * *

- Tested on: rodent lifetime carcinogenesis bioassay, tumor incidence TD50
- method description: carcinogenic potency in animals, long-term in vivo studies, CPDB compilation (AID 1745844)
- particulars: rat; strain Wistar; males; by gavage; site: forestomach; lesion: squamous-cell carcinoma; dosed 104 weeks; study length 104 weeks
recorded endpoint: TD50

Query string: Under rodent lifetime carcinogenesis bioassay, tumor incidence TD50: TD50 value of ClCC1CO1 (stereo unspecified) ?
Result string: 3.53 mg/kg/day
